As shown below, each of these compounds has a reported Emax value.
target: UniProt Q12931; experiment: ADP Glo assay of TRAP1 ATPase activity; assay type: biochemical; conditions: read-out: ADP GLO DRC: Mean Emax

[ask] For the compound shown here, `COc1ccc(NC(=O)c2ccc3ncoc3c2)cc1S(=O)(=O)Nc1c(C)cccc1C` , give the reported Emax.
[reply] 123 to 159%

[ask] For the compound shown here, `COc1ccc(NC(=O)c2ncccc2C)cc1S(=O)(=O)Nc1c(C)cccc1C` , give the reported Emax.
[reply] 123 to 159%

[ask] For the compound shown here, `COc1ccc(NC(=O)c2ccc(C(F)(F)F)n2C)cc1S(=O)(=O)Nc1c(C)cccc1C` , give the reported Emax.
[reply] 123 to 159%

[ask] For the compound shown here, `COc1ccc(NC(=O)c2cnc(OC)c(C(F)(F)F)c2)cc1S(=O)(=O)Nc1c(C)cccc1C` , give the reported Emax.
[reply] 123 to 159%

[ask] For the compound shown here, `COc1ccc(NC(=O)c2ccc(Br)nc2F)cc1S(=O)(=O)Nc1c(C)cccc1C` , give the reported Emax.
[reply] 123 to 159%

[ask] For the compound shown here, `COc1ccc(-c2noc(C)c2C(=O)Nc2ccc(F)c(S(=O)(=O)Nc3ccc(Cl)cc3)c2)cc1` , give the reported Emax.
[reply] 123 to 159%

---

As shown below, each of these compounds has a reported pEC50 value.
Target: TRAP1 enzyme (Homo sapiens, UniProt Q12931)
Sequence (Q12931 60-704): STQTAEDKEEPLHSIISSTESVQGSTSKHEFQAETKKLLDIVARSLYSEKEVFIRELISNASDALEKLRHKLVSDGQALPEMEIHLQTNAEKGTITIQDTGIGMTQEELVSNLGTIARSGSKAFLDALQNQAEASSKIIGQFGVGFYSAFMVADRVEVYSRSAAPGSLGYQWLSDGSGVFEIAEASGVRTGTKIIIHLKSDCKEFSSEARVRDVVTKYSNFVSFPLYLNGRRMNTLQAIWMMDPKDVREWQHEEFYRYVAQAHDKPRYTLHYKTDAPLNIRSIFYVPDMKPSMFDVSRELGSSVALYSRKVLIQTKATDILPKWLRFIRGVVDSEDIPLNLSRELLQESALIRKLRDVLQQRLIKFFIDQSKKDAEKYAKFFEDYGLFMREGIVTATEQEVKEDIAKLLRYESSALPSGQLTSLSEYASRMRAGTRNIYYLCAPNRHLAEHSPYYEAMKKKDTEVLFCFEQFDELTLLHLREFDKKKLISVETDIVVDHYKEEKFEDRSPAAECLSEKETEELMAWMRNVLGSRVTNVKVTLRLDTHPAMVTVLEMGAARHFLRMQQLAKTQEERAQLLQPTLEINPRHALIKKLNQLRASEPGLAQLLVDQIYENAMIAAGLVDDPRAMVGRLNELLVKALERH
Assay: Malachite green phosphate assay of TRAP1 ATPase activity
Type: biochemical
Settings: TRAP1 ATPase activation, 150 nM Trap1, 20 μM ATP, geometric mean; read-out: Malachite Green Fluor DRC: GeoMean EC50
pEC50: −log10 of the molar value.

Before answering, review these 10 worked examples.
COc1ccc(NC(=O)c2cnc[nH]2)cc1S(=O)(=O)Nc1ccc(C(C2N=N2)C(F)(F)F)cc1 (stereo not shown): 4.00 to 4.70
COc1ccc(NC(=O)c2cnc(-c3ccccc3)[nH]2)cc1S(=O)(=O)Nc1ccc(Cl)cc1: > 5.00
COc1ccc(NC(=O)c2cnc(-c3ccccc3)[nH]2)cc1S(=O)(=O)Nc1ccncc1: 4.00 to 4.70
C=C(C)c1ncoc1C(=O)Nc1ccc(OC)c(S(=O)(=O)Nc2ccc(Cl)cc2)c1: 4.00 to 4.70
O=C(Nc1cccc(S(=O)(=O)N2CCOc3cc(Cl)ccc32)c1)c1ncco1: 4.00 to 4.70
COc1ccc(NC(=O)c2nccs2)cc1S(=O)(=O)Nc1ccc(Br)cc1: 4.70 to 5.00
Cc1ncoc1C(=O)Nc1cccc(S(=O)(=O)N2CCCc3cc(Cl)ccc32)c1: 4.70 to 5.00
COc1ccc(NC(=O)c2cnc(C(F)(F)F)[nH]2)cc1S(=O)(=O)N(CCCCCO)c1ccc(Br)cc1: 4.00 to 4.70
COc1ccc(NC(=O)c2ncco2)cc1S(=O)(=O)N(CCCCCCO)c1ccc(Br)cc1: 4.70 to 5.00
COc1ccc(NC(=O)c2cnc(-c3ccccc3)[nH]2)cc1S(=O)(=O)N(C)c1ccc(Br)cc1: 4.00 to 4.70

[ask] For the compound shown here, `O=C(Nc1ccc(OC(F)(F)F)c(S(=O)(=O)Nc2c(Cl)cccc2Cl)c1)c1cnc(-c2ccccc2)o1` , give the reported pEC50.
[reply] > 5.00

[ask] For the compound shown here, `COc1ccc(NC(=O)c2cnc(C(F)(F)F)[nH]2)cc1S(=O)(=O)N(CCCCN1CCOCC1)c1ccc(Br)cc1` , give the reported pEC50.
[reply] 4.00 to 4.70

---

target: TRAP1 enzyme (Homo sapiens, UniProt Q12931); experiment: ADP Glo assay of TRAP1 ATPase activity; assay type: biochemical; conditions: read-out: ADP GLO DRC: Mean Emax
result.type: Emax

Before answering, review these 2 worked examples.
COc1ccc(NC(=O)c2cnc(-c3ccccc3)[nH]2)cc1S(=O)(=O)Nc1c(C)cccc1C [Compound 408]: 200 to 300%
COc1ccc(NC(=O)c2ccc3c(c2)CCCO3)cc1S(=O)(=O)Nc1c(C)cccc1C [Compound 1121]: 160 to 199%

[ask] For the compound shown here, CCOc1c(F)c(F)cc(C(=O)Nc2ccc(OC)c(S(=O)(=O)Nc3c(C)cccc3C)c2)c1F [Compound 1145] , give the reported Emax.
[reply] 123 to 159%

[ask] For the compound shown here, Cn1c(=O)n(C)c2cc(C(=O)Nc3ccc(F)c(S(=O)(=O)Nc4ccc(Cl)cc4)c3)ccc21 [Compound 1261] , give the reported Emax.
[reply] 123 to 159%

---

As shown below, each of these molecules has a reported pEC50 value.
Biological target: UniProt Q12931
Sequence (Q12931 60-704): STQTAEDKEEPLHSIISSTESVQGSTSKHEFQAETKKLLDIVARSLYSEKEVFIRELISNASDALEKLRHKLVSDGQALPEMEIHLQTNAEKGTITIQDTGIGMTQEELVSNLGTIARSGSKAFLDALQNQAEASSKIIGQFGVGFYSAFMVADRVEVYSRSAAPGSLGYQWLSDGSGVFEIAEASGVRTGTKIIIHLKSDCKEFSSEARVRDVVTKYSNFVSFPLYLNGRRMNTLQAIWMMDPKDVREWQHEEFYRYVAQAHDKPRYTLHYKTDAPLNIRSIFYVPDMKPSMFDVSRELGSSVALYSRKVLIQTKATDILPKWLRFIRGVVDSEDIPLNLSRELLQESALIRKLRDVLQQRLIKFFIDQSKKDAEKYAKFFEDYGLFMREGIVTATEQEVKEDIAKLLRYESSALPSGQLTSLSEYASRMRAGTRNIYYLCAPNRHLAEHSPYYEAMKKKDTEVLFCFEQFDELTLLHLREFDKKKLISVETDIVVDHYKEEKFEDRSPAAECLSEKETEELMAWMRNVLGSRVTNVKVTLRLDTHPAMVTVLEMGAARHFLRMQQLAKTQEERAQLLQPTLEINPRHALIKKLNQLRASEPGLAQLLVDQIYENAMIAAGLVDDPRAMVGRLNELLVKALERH
Assay: ADP Glo assay of TRAP1 ATPase activity
Assay type: biochemical
Details: TRAP1 ATPase activation, 150 nM Trap1, 20 μM ATP, geometric mean; read-out: ADP GLO DRC: GeoMean EC50
pEC50: −log10 of the molar value.

Before answering, review these 4 worked examples.
COc1ccc(NC(=O)c2cnc3ccccc3c2)cc1S(=O)(=O)Nc1c(C)cccc1C: > 5.00
COc1ccc(NC(=O)c2ccc3c(c2)n(C)c(=O)n3C)cc1S(=O)(=O)Nc1c(C)cccc1C: > 5.00
COc1ccc(NC(=O)c2ncc(-c3cc(F)c(F)c(F)c3)o2)cc1S(=O)(=O)Nc1c(C)csc1C: 4.00 to 4.70
COc1ccc(NC(=O)c2c(C(F)(F)F)ccnc2C)cc1S(=O)(=O)Nc1c(C)cccc1C: 4.00 to 4.70

[ask] For the molecule shown here, `COc1ccc(NC(=O)c2ccc(C)nc2OC)cc1S(=O)(=O)Nc1c(C)cccc1C` , give the reported pEC50.
[reply] > 5.00

[ask] For the molecule shown here, `CC(C)(C)OC(=O)c1ccccc1C(=O)Nc1ccc(F)c(S(=O)(=O)Nc2ccc(Cl)cc2)c1` , give the reported pEC50.
[reply] 4.00 to 4.70

[ask] For the molecule shown here, `O=C(Nc1ccc(F)c(S(=O)(=O)Nc2ccc(Cl)cc2)c1)c1ccccc1C(=O)c1ccccc1` , give the reported pEC50.
[reply] > 5.00

[ask] For the molecule shown here, `COc1ccc(NC(=O)c2ccc(C(F)(F)F)n2C)cc1S(=O)(=O)Nc1c(C)cccc1C` , give the reported pEC50.
[reply] > 5.00
